B1: Azoarcus group I ribozyme (parent)
chain: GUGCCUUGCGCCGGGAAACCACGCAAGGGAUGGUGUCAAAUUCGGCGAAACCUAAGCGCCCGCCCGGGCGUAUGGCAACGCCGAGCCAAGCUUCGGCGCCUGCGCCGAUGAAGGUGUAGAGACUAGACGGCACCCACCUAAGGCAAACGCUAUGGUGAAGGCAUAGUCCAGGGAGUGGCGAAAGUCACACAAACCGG

- Variants of: B1
- assay.summary: reverse-splicing fitness (ratio to wild type); higher = more active; in vitro selection; Mg2+ level not given
Listed below: reverse-splicing fitness values for each entry.
Would you mind answering with just the numeric figure?

Please review the entries below; each comes with its answer.
{"residue.change": "C82U A120C A145G C150U C169G", "reverse-splicing fitness": 0.00809}
{"residue.change": "C82G A120C A145G C169G U176C", "reverse-splicing fitness": 0.0241}
{"residue.change": "A120G C150U C169G U176A", "reverse-splicing fitness": 0.157}
{"residue.change": "C82G A120G A145C C150G U176C", "reverse-splicing fitness": 0.00894}
{"residue.change": "C82U A111U A120U A145U C150G C169U U176A", "reverse-splicing fitness": 0.00242}

Query: State its reverse-splicing fitness for this variant: A111G A145U C150U C169U
Result: 0.132

Query: State its reverse-splicing fitness for this variant: C82U A111C A120C A145C C150A C169A U176C
Result: 0.00754

Query: State its reverse-splicing fitness for this variant: A111G A120G A145C C150A C169U U176A
Result: 0.0233

Query: State its reverse-splicing fitness for this variant: C82G A111G A120U A145G U176G
Result: 0.00435

Query: State its reverse-splicing fitness for this variant: C82A A111C A120U A145U C150G C169U U176A
Result: 0.0031
